# Test system: UO-31 renal
# TEST_METHOD_NOTES: NCI-60 one-dose screen, 48 h (100 = growth as untreated, 0 = no growth, -100 = all killed)
# ASSAY_CONTEXT: 10 µM unless noted
# Protocol: Growth inhibition of the UO-31 human tumor cell line is measured as a screen for anti-cancer activity. Cells are grown in 96 well plates and exposed to the test compound for 48 hours. Compounds are tested at a single concentration, which is 10^-5 M for most compounds. The reported endpoint is percent growth (GI% or GIPRCNT), where numbers from 0 - 100% represent growth inhibition, and numbers from -100% - 0 represent cell death. For example, a value of 40 represents 60% growth inhibition. […]
About 83,000 compounds went through this panel and 20% of them were active in at least one assay; those are over-represented in the sample as a whole.
MEASUREMENT_KIND: growth (%)
Numbers only, in %.

For orientation, consider the following solved cases.
>>> observed("Cc1ccc2nc(-c3ccc(N=Cc4ccccc4O)cc3)sc2c1")
60
>>> observed("NC(=S)N/N=C/c1ccc(OC(=O)COc2ccc(Cl)cc2)cn1")
24.9
>>> observed("Nc1cc2ccccc2c(O)c1O")
55.2

Field: growth. Fill in for each record below.
1. COc1cccc2c1Cc1ccccc1-2
2. COC1OC(C(COC(C)=O)OC(C)=O)C(OC(C)=O)C(OC(C)=O)C1OC(C)=O (stereo not drawn)
3. Nc1ccc(F)cc1F
4. O=C(CCl)Nc1ccccc1SCc1cc(Cl)cc2c1OCOC2
5. Clc1ccc(C(SCc2ccccc2)SCc2ccccc2)cc1
6. CCCCNC(=O)c1ccc(OCC)cc1

[88.6, 83.8, 98.4, 75.7, 90, 101]

Field: growth. Fill in for each record below.
1. CN(C(=S)S(=O)(=O)C12CC3CC(CC(C3)C1)C2)c1ccccc1
2. Cc1ccc(C)c(CCO)c1

1. 71.5
2. 93.7

Field: growth. Fill in for each record below.
1. CCCCCC/C=C\CCCCCCCCCc1cc(O)cc(OC)c1O
2. COc1ccc(C(=O)/C(=N/Nc2ccccc2)c2ccc(OC)cc2)cc1

[-19.1, 71.4]
